- Tested System: RET (Homo sapiens)
- Construct: purchased DiscoverX (KINOMEscan)
- Sequence (P07949 29-1114): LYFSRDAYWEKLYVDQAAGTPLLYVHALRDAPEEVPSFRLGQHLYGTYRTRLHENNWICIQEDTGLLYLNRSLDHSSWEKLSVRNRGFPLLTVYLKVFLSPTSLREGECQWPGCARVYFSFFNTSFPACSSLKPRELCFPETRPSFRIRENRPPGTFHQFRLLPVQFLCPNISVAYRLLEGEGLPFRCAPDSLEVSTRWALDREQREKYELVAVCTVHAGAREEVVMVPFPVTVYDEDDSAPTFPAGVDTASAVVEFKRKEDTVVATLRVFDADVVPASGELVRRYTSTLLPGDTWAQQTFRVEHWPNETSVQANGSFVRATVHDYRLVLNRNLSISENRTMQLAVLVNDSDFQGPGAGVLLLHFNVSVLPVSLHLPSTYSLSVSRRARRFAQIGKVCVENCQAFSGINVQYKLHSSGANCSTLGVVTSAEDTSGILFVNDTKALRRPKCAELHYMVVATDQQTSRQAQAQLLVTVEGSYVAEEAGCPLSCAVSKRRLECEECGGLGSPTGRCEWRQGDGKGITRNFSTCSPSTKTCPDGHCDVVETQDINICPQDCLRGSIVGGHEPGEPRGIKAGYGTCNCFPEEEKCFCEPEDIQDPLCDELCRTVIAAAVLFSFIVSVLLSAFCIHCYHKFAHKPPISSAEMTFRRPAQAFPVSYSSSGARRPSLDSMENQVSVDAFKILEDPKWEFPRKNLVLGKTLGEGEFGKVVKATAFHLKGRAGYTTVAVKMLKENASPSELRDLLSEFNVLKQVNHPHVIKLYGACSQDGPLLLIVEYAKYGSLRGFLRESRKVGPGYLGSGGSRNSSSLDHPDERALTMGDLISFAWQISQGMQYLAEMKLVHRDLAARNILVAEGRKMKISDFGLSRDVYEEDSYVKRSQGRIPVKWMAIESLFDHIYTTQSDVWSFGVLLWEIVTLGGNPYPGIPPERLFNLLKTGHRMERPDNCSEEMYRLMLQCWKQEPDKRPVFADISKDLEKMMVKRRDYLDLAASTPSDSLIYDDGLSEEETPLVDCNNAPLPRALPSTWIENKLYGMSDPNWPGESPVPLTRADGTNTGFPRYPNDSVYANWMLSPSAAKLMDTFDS
- Assay Method Text: KINOMEscan competitive binding
- Protocol Conditions: n=1, read-out: Percent inhibition, RET
Property: inhibition at 10 µM; scope: individual molecules
Response body: numeric value in %, unit text excluded.

Solved entries:
{"Smiles Repr": "COc1ccc(Nc2nccc(-c3cnn4ncccc34)n2)cc1", "Tested System": "RET (Homo sapiens)", "Endpoint Label": "inhibition at 10 µM", "Value Units": "%", "Reported Result": 0}
{"Smiles Repr": "Fc1cccc(COc2ccc(Nc3ncnc4c3CN(CCN3CCOCC3)CC4)cc2Cl)c1", "Tested System": "RET (Homo sapiens)", "Endpoint Label": "inhibition at 10 µM", "Value Units": "%", "Reported Result": 0}
{"Smiles Repr": "Clc1ccc(Nc2ncc(-c3ccccc3)s2)cc1", "Tested System": "RET (Homo sapiens)", "Endpoint Label": "inhibition at 10 µM", "Value Units": "%", "Reported Result": 0}
{"Smiles Repr": "COc1cc(Nc2nccc(-c3sc(N)nc3-c3cccc(NC(=O)c4c(F)cccc4F)c3)n2)cc(OC)c1OC", "Tested System": "RET (Homo sapiens)", "Endpoint Label": "inhibition at 10 µM", "Value Units": "%", "Reported Result": 100}

Ask: If you can, please state the reported inhibition at 10 µM value of C[C@@H](Oc1cc(-c2cnc3ccccn23)sc1C(N)=O)c1ccccc1Cl .
Result: 0

====

Here the recorded inhibition at 10 µM is given for each entry.
- Tested System: STK16 (Homo sapiens)
- Construct: purchased DiscoverX (KINOMEscan)
- Sequence (O75716 whole entry): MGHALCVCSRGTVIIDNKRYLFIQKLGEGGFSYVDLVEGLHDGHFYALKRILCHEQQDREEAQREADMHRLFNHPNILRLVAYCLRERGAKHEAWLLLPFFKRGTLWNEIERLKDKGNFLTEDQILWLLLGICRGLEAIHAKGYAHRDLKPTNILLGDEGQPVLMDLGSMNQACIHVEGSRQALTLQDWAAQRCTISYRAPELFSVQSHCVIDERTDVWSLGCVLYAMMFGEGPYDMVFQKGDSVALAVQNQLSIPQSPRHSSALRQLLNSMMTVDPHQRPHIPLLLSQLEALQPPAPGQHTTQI
- Assay Method Text: KINOMEscan competitive binding
- Protocol Conditions: n=1, read-out: Percent inhibition, STK16
Hi! Could you send only the number? It should be in %, unit omitted.

{"Smiles Repr": "COc1cc(Nc2nccc(-c3sc(N)nc3-c3cccc(NC(=O)c4c(F)cccc4F)c3)n2)cc(OC)c1OC", "Tested System": "STK16 (Homo sapiens)", "Value Units": "%", "inhibition at 10 µM": 98.7}
{"Smiles Repr": "COc1ccc(Nc2nccc(-c3cnn4ncccc34)n2)cc1", "Tested System": "STK16 (Homo sapiens)", "Value Units": "%", "inhibition at 10 µM": 99.7}
{"Smiles Repr": "C[C@@H](Oc1cc(-c2cnc3ccccn23)sc1C(N)=O)c1ccccc1Cl", "Tested System": "STK16 (Homo sapiens)", "Value Units": "%", "inhibition at 10 µM": 0}

Ask: For STK16 (Homo sapiens), provide inhibition at 10 µM of c1ccc(COc2cccc(-c3ccnc4[nH]ccc34)c2)cc1 please.
Result: 0

Ask: And for Fc1cccc(COc2ccc(Nc3ncnc4c3CN(CCN3CCOCC3)CC4)cc2Cl)c1 ?
Result: 0

Ask: Same again, this time with Nc1ncc2c(-c3ccncc3)c[nH]c2n1
Result: 0

Ask: Also, CN1CCN(c2ccc(Nc3nccc(-c4cnn5ncccc45)n3)cc2C#N)CC1 please.
Result: 100

Ask: // next record Clc1ccc(Nc2ncc(-c3ccccc3)s2)cc1
Result: 0

Ask: And Cc1ccc(O)cc1N(C)c1ccnc(Nc2cccc(S(N)(=O)=O)c2)n1 ?
Result: 99.8

Ask: Param item: Cc1ccc(O)cc1Nc1ccnc(Nc2cccc(C(N)=O)c2)n1
Result: 99.9

====

- Tested System: TGFBR1 (Homo sapiens, UniProt P36897)
- Construct: purchased DiscoverX (KINOMEscan)
- Sequence (P36897 34-503): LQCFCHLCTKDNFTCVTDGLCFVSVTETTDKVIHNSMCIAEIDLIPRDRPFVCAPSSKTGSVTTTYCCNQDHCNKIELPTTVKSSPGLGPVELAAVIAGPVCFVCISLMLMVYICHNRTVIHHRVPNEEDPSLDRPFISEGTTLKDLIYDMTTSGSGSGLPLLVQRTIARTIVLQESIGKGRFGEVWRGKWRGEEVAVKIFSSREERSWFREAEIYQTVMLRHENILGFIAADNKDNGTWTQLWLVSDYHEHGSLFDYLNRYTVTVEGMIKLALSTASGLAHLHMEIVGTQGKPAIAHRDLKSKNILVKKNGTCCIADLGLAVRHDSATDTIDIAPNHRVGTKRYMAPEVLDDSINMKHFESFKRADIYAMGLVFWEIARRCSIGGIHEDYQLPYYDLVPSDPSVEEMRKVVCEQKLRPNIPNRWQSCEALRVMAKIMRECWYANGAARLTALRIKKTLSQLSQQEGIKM
- Assay Method Text: KINOMEscan competitive binding
- Protocol Conditions: n=1, read-out: Percent inhibition, TGFBR1
Endpoint Label: inhibition at 10 µM (%)
The reply should contain only the number, in %.

Worked cases, answers included:
{"Smiles Repr": "Fc1cccc(COc2ccc(Nc3ncnc4c3CN(CCN3CCOCC3)CC4)cc2Cl)c1", "Value Units": "%", "Reported Result": 0}
{"Smiles Repr": "c1ccc(COc2cccc(-c3ccnc4[nH]ccc34)c2)cc1", "Value Units": "%", "Reported Result": 0}
{"Smiles Repr": "C[C@@H](Oc1cc(-c2cnc3ccccn23)sc1C(N)=O)c1ccccc1Cl", "Value Units": "%", "Reported Result": 0}
{"Smiles Repr": "Cc1ccc(O)cc1Nc1ccnc(Nc2cccc(C(N)=O)c2)n1", "Value Units": "%", "Reported Result": 100}
{"Smiles Repr": "Clc1ccc(Nc2ncc(-c3ccccc3)s2)cc1", "Value Units": "%", "Reported Result": 0}

Ask: Give the reported inhibition at 10 µM for Cc1ccc(O)cc1N(C)c1ccnc(Nc2cccc(S(N)(=O)=O)c2)n1 (system: TGFBR1 (Homo sapiens, UniProt P36897)).
Result: 100

Ask: Then what about the molecule CN1CCN(c2ccc(Nc3nccc(-c4cnn5ncccc45)n3)cc2C#N)CC1 ?
Result: 78.8

Ask: Thanks! And COc1ccc(Nc2nccc(-c3cnn4ncccc34)n2)cc1 ?
Result: 0

Ask: And then Nc1ncc2c(-c3ccncc3)c[nH]c2n1 , what is it?
Result: 0

Ask: Field entry: COc1cc(Nc2nccc(-c3sc(N)nc3-c3cccc(NC(=O)c4c(F)cccc4F)c3)n2)cc(OC)c1OC
Result: 72.9

====

- Tested System: TNIK (Homo sapiens)
- Construct: purchased DiscoverX (KINOMEscan)
- Sequence (Q9UKE5 whole entry): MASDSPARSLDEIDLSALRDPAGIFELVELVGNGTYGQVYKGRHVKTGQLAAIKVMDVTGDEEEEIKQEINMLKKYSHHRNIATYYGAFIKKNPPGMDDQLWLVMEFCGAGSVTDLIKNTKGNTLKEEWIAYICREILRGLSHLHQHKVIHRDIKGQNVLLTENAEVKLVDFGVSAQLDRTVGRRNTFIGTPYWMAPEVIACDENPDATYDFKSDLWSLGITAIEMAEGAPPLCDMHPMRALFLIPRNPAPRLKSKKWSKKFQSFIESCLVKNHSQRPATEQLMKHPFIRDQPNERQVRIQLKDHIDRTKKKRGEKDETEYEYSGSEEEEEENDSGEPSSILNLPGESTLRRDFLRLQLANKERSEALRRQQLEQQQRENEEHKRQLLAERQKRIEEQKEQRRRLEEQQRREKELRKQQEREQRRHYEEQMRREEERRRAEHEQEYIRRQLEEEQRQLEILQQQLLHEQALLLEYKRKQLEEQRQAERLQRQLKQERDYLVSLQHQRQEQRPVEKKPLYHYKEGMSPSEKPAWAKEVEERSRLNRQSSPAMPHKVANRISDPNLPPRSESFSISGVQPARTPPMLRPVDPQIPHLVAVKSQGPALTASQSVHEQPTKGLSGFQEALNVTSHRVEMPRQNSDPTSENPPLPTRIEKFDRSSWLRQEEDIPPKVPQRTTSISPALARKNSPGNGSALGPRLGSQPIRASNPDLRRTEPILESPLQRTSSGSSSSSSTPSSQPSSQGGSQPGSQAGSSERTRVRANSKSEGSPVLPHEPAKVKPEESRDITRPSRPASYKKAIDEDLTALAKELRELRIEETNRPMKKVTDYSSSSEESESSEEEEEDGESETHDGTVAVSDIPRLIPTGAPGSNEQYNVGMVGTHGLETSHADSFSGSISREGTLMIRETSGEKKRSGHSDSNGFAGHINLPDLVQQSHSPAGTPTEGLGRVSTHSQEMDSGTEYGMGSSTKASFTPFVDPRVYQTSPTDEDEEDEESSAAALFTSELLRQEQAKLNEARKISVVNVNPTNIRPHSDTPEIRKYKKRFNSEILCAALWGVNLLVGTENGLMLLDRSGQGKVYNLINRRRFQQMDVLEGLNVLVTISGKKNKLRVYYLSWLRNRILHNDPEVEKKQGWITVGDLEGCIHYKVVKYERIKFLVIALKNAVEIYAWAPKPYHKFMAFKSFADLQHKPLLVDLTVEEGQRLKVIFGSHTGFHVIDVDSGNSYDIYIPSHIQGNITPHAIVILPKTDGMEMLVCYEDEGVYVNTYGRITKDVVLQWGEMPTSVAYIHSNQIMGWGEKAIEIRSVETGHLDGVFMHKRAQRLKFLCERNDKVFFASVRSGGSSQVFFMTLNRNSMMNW
- Assay Method Text: KINOMEscan competitive binding
- Protocol Conditions: n=1, read-out: Percent inhibition, TNIK
Overview of reported inhibition at 10 µM across a group of molecules:
Your answer should be a number followed by the unit of measure.

{"Smiles Repr": "COc1ccc(Nc2nccc(-c3cnn4ncccc34)n2)cc1", "Tested System": "TNIK (Homo sapiens)", "inhibition at 10 µM": "93.4%"}
{"Smiles Repr": "CN1CCN(c2ccc(Nc3nccc(-c4cnn5ncccc45)n3)cc2C#N)CC1", "Tested System": "TNIK (Homo sapiens)", "inhibition at 10 µM": "98.9%"}

Ask: // lookup inhibition at 10 µM for COc1cc(Nc2nccc(-c3sc(N)nc3-c3cccc(NC(=O)c4c(F)cccc4F)c3)n2)cc(OC)c1OC
Result: 99.9%

Ask: Okay, and C[C@@H](Oc1cc(-c2cnc3ccccn23)sc1C(N)=O)c1ccccc1Cl ?
Result: 0%

Ask: Try Nc1ncc2c(-c3ccncc3)c[nH]c2n1 next.
Result: 93.7%

Ask: Could you do the same for Cc1ccc(O)cc1N(C)c1ccnc(Nc2cccc(S(N)(=O)=O)c2)n1 , please?
Result: 99.6%

Ask: One more molecule: c1ccc(COc2cccc(-c3ccnc4[nH]ccc34)c2)cc1
Result: 0%

Ask: Queued: Clc1ccc(Nc2ncc(-c3ccccc3)s2)cc1
Result: 0%

Ask: And the next one, Cc1ccc(O)cc1Nc1ccnc(Nc2cccc(C(N)=O)c2)n1 ?
Result: 99.3%

Ask: Queued: Fc1cccc(COc2ccc(Nc3ncnc4c3CN(CCN3CCOCC3)CC4)cc2Cl)c1
Result: 0%

====

- Tested System: panel of 203 kinases (Homo sapiens)
- Construct: purchased DiscoverX (KINOMEscan)
- Sequence (Q15375 28-998): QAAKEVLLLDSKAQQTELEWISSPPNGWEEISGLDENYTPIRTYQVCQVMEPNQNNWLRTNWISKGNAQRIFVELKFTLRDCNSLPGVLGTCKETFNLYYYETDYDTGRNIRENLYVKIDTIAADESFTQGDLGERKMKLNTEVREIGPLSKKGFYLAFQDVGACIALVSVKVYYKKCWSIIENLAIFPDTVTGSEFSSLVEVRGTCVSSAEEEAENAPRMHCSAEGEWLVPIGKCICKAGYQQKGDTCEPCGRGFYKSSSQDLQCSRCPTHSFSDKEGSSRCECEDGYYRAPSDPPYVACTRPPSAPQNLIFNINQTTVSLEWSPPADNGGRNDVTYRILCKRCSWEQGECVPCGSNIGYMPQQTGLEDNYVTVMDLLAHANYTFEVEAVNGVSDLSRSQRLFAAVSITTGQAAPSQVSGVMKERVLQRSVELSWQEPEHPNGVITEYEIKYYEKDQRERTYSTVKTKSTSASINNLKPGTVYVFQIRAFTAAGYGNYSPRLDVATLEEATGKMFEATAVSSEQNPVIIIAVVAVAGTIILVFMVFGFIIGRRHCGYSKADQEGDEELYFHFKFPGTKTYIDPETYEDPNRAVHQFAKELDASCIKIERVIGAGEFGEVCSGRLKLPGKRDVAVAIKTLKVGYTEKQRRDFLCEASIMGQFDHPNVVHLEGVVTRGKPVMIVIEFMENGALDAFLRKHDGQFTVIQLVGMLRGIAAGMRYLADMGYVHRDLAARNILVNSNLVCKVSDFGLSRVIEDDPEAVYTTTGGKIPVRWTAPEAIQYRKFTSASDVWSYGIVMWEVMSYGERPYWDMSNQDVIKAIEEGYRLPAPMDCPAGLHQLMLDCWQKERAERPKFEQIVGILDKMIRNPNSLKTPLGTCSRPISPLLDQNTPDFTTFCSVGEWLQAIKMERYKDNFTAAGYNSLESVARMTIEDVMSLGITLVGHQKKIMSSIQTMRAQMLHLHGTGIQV
- Assay Method Text: KINOMEscan competitive binding, whole panel
- Protocol Conditions: 10 µM, n=1; kinase EPHA7; read-out: Percent inhibition EPHA7
- Description: The kinases were expressed as fusions to T7 bacteriophage. This is a sensitive, competitive binding assay where test compounds were used to displace immobilized ATP-site binding probe ligands from kinases of interest. The amount of kinase that remained bound to the immobilized probe ligands on the solid support was quantified. Percentage inhibition data were was plotted on kinome trees using the web-based tool KinMap (http://www.kinhub.org/kinmap) ([60]).
As shown below, each of these compounds has a reported inhibition at 10 µM value.
// note: answer is a bare numeric in %

Some solved cases for reference:
{"Smiles Repr": "Cc1ccc(O)cc1N(C)c1ccnc(Nc2cccc(S(N)(=O)=O)c2)n1", "Value Units": "%", "inhibition at 10 µM": 100}
{"Smiles Repr": "Fc1cccc(COc2ccc(Nc3ncnc4c3CN(CCN3CCOCC3)CC4)cc2Cl)c1", "Value Units": "%", "inhibition at 10 µM": 0}
{"Smiles Repr": "Clc1ccc(Nc2ncc(-c3ccccc3)s2)cc1", "Value Units": "%", "inhibition at 10 µM": 0}

Ask: Query: inhibition at 10 µM; subject: Cc1ccc(O)cc1Nc1ccnc(Nc2cccc(C(N)=O)c2)n1
Result: 84

Ask: Now the compound c1ccc(COc2cccc(-c3ccnc4[nH]ccc34)c2)cc1
Result: 0

Ask: And then COc1ccc(Nc2nccc(-c3cnn4ncccc34)n2)cc1 , what is it?
Result: 74.6

Ask: Quick one: CN1CCN(c2ccc(Nc3nccc(-c4cnn5ncccc45)n3)cc2C#N)CC1
Result: 67.3

Ask: Now consider COc1cc(Nc2nccc(-c3sc(N)nc3-c3cccc(NC(=O)c4c(F)cccc4F)c3)n2)cc(OC)c1OC and answer again.
Result: 0

Ask: Now try Nc1ncc2c(-c3ccncc3)c[nH]c2n1 .
Result: 0

Ask: Same for C[C@@H](Oc1cc(-c2cnc3ccccn23)sc1C(N)=O)c1ccccc1Cl
Result: 0
